B1: HHH_rd2_0155 (parent)
chain: PPDDERKKAEKAARSGNEEKAREILERLGYSEDEARELAKRLR

variants of: B1; assay: folding stability dG (cDNA display proteolysis); higher = more stable; conditions: PBS, room temperature
Assay Endpoint: folding stability dG (kcal/mol)

{"Mutation Name": "E34W", "Assay Endpoint": "folding stability dG", "Recorded Measurement": 1.08}
{"Mutation Name": "R22M", "Assay Endpoint": "folding stability dG", "Recorded Measurement": 1.88}
{"Mutation Name": "P1K", "Assay Endpoint": "folding stability dG", "Recorded Measurement": 2.14}
{"Mutation Name": "A39W", "Assay Endpoint": "folding stability dG", "Recorded Measurement": 1.01}
{"Mutation Name": "A13P", "Assay Endpoint": "folding stability dG", "Recorded Measurement": 0.95}
{"Mutation Name": "A21E", "Assay Endpoint": "folding stability dG", "Recorded Measurement": 0.697}
{"Mutation Name": "E37D", "Assay Endpoint": "folding stability dG", "Recorded Measurement": 1.73}
{"Mutation Name": "E23V", "Assay Endpoint": "folding stability dG", "Recorded Measurement": 1.72}
{"Mutation Name": "E34F", "Assay Endpoint": "folding stability dG", "Recorded Measurement": 1.39}
{"Mutation Name": "A9C", "Assay Endpoint": "folding stability dG", "Recorded Measurement": 1.45}
{"Mutation Name": "E37F", "Assay Endpoint": "folding stability dG", "Recorded Measurement": 1.98}
{"Mutation Name": "E32M", "Assay Endpoint": "folding stability dG", "Recorded Measurement": 1.78}
{"Mutation Name": "E37H", "Assay Endpoint": "folding stability dG", "Recorded Measurement": 1.85}
{"Mutation Name": "P2R", "Assay Endpoint": "folding stability dG", "Recorded Measurement": 2.17}
{"Mutation Name": "L42V", "Assay Endpoint": "folding stability dG", "Recorded Measurement": 0.97}
{"Mutation Name": "E10L", "Assay Endpoint": "folding stability dG", "Recorded Measurement": 2.38}
{"Mutation Name": "K11P", "Assay Endpoint": "folding stability dG", "Recorded Measurement": 0.889}
{"Mutation Name": "K40F", "Assay Endpoint": "folding stability dG", "Recorded Measurement": 1.8}
{"Mutation Name": "I24P", "Assay Endpoint": "folding stability dG", "Recorded Measurement": 0.158}
{"Mutation Name": "E26R", "Assay Endpoint": "folding stability dG", "Recorded Measurement": 2.65}
{"Mutation Name": "E5H", "Assay Endpoint": "folding stability dG", "Recorded Measurement": 1.5}
{"Mutation Name": "L38S", "Assay Endpoint": "folding stability dG", "Recorded Measurement": 0.129}
{"Mutation Name": "E32A", "Assay Endpoint": "folding stability dG", "Recorded Measurement": 2.33}
{"Mutation Name": "E5Q", "Assay Endpoint": "folding stability dG", "Recorded Measurement": 1.91}
{"Mutation Name": "R22K", "Assay Endpoint": "folding stability dG", "Recorded Measurement": 1.44}
{"Mutation Name": "R6G", "Assay Endpoint": "folding stability dG", "Recorded Measurement": 1.11}
{"Mutation Name": "G29V", "Assay Endpoint": "folding stability dG", "Recorded Measurement": 0.455}
{"Mutation Name": "E18I", "Assay Endpoint": "folding stability dG", "Recorded Measurement": 2.6}
{"Mutation Name": "R6M", "Assay Endpoint": "folding stability dG", "Recorded Measurement": 3.24}
{"Mutation Name": "K40P", "Assay Endpoint": "folding stability dG", "Recorded Measurement": 0.1}
{"Mutation Name": "R36F", "Assay Endpoint": "folding stability dG", "Recorded Measurement": 1.56}
{"Mutation Name": "A13S", "Assay Endpoint": "folding stability dG", "Recorded Measurement": 1.13}
{"Mutation Name": "L38K", "Assay Endpoint": "folding stability dG", "Recorded Measurement": 0.756}
{"Mutation Name": "L28D", "Assay Endpoint": "folding stability dG", "Recorded Measurement": 0.418}
{"Mutation Name": "D4H", "Assay Endpoint": "folding stability dG", "Recorded Measurement": 1.88}
{"Mutation Name": "E5I", "Assay Endpoint": "folding stability dG", "Recorded Measurement": 1.51}
{"Mutation Name": "R43V", "Assay Endpoint": "folding stability dG", "Recorded Measurement": 1.77}
{"Mutation Name": "R22D", "Assay Endpoint": "folding stability dG", "Recorded Measurement": 0.179}
{"Mutation Name": "E19T", "Assay Endpoint": "folding stability dG", "Recorded Measurement": 2.05}
{"Mutation Name": "E10G", "Assay Endpoint": "folding stability dG", "Recorded Measurement": 1.58}
{"Mutation Name": "S15T", "Assay Endpoint": "folding stability dG", "Recorded Measurement": 1.8}
{"Mutation Name": "A35L", "Assay Endpoint": "folding stability dG", "Recorded Measurement": 1.02}
{"Mutation Name": "K8E", "Assay Endpoint": "folding stability dG", "Recorded Measurement": 2.26}
{"Mutation Name": "A35M", "Assay Endpoint": "folding stability dG", "Recorded Measurement": 1.02}
{"Mutation Name": "K11M", "Assay Endpoint": "folding stability dG", "Recorded Measurement": 2.48}
{"Mutation Name": "A39L", "Assay Endpoint": "folding stability dG", "Recorded Measurement": 2.36}

Attribution: the MegaScale stability set (Tsuboyama et al. 2023)
